TESTED SYSTEM: T1, Cynomolgus TNFR2-His (Sino 90102-C08H) (cynomolgus monkey, UniProt A0A2K5VET2 132-366)
T1 construct: Bought protein; also called cynomolgus monkey TNFR2; recombinant cynomolgus monkey TNFR2 protein; not shown: His tag
T1 sequence: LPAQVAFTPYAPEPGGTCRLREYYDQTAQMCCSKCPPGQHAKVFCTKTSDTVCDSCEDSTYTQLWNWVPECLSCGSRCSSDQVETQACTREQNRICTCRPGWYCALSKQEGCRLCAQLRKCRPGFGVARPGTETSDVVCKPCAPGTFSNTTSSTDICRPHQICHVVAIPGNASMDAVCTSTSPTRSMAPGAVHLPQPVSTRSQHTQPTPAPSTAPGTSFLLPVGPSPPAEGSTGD
MEASUREMENT NOTES: SPR (Biacore T200), antibody captured on Protein A chip
OBSERVATION TYPE: log10 of Kd (log10 of the value in nM)
Kindly note that the scale is log10 and the underlying Kd is in nM.

// known answers, use as guide
>  <BINDER>
001-WT (antibody, V domains shown, Human-murine chimeric wild-type molecule; also called human-murine chimeric antibody WT of #001) VH: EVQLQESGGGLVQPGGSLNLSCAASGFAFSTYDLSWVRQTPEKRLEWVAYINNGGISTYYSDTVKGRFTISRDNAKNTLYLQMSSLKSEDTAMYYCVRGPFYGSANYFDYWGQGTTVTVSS VL: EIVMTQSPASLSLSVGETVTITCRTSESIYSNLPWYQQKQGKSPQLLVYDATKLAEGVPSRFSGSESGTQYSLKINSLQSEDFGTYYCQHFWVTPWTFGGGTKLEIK

>  <ASSAY VALUE>
-0.60

$$$$
>  <BINDER>
224-Hu4 (antibody, V domains shown, Humanized form of #224; also called VH9 + VL6) VH: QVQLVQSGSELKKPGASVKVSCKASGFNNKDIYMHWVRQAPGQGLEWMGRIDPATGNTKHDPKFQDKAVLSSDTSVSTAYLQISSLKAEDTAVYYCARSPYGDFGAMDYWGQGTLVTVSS VL: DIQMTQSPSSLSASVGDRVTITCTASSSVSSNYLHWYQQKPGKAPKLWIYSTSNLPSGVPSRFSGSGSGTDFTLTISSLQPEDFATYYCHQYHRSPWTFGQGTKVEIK

>  <ASSAY VALUE>
0.50

$$$$
>  <BINDER>
224-Hu7 (antibody, V domains shown, Humanized form of #224; also called VH9 + VL10) VH: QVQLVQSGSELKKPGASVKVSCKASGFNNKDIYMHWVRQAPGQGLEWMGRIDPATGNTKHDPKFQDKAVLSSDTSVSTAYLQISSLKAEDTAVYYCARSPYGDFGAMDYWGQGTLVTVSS VL: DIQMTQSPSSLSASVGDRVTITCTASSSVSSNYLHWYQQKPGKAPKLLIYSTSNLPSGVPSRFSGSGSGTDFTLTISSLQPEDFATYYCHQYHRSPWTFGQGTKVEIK

>  <ASSAY VALUE>
0.49

$$$$
>  <BINDER>
224-Hu5 (antibody, V domains shown, Humanized form of #224; also called VH9 + VL9) VH: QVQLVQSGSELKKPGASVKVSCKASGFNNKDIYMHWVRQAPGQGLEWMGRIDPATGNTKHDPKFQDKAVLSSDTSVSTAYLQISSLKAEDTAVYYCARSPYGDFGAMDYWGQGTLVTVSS VL: DIQMTQSPSSLSASVGDRVTITCTASSSVSSNYLHWYQQKPGKAPKLLIYSTSNLPSGVPSRFSGSGSGTDYSLTISSLQPEDFATYYCHQYHRSPWTFGQGTKVEIK

>  <ASSAY VALUE>
0.52

$$$$

Consider now this further binder.
Query: Bench note: what log10 of Kd did 001-Hu5 (antibody, V domains shown, Humanized form of #001; also called VH1 + VL4) VH: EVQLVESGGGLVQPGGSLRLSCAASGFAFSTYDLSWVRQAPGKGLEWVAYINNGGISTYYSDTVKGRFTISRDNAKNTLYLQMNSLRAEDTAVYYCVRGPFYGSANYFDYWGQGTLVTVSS VL: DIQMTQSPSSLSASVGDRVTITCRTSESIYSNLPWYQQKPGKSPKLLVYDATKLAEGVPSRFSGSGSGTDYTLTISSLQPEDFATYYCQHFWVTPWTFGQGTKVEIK show?
Reply: -0.32
